List of pIC50 values.
Biological target: human EHMT2 913-1193 (Homo sapiens, UniProt Q96KQ7)
Construct: recombinant purified human EHMT2 913-1193, Viva; purchased Viva
Experiment: EHMT2 enzyme assay on histone peptide substrate (EHMT2 PEP)
Assay type: biochemical
Conditions: Table VII; read-out: EHMT2 PEP IC50
pIC50: −log10 of the molar value.

compound	pIC50
CNCCCOc1cc(Nc2nccc(NC)n2)ccc1OC	6.00 to 7.00
CNc1ccnc(Nc2ccc(OC)c(OCC(C)(O)CN3CCC3)c2)n1 (stereo not drawn)	6.00 to 7.00
CNc1ccnc(Nc2ccc(OC)c(OCC(C)CN3CCC3)c2)n1 (stereo not drawn)	6.00 to 7.00
CNc1ccnc(Nc2ccc(OC)c(OC[C@H](CN3CCCC3)OC)c2)n1	5.00 to 6.00
CNc1cc(C2CCOCC2)c2cc(OC)c(OCCCN3CC(O)C3)cc2n1	6.00 to 7.00

Proceed to the following item.
Name the reported pIC50 value associated with the compound `CNc1cc(C)nc(Nc2cnc(OC)c(OC[C@H](O)CN3CCC3)c2)n1`
6.00 to 7.00

---

Target: human EHMT2 913-1193 (Homo sapiens, UniProt Q96KQ7)
Construct: recombinant purified human EHMT2 913-1193, Viva; purchased Viva
Test: EHMT2 enzyme assay on histone peptide substrate (EHMT2 PEP)
Type: biochemical
Conditions: recombinant human EHMT2 913-1193, histone H3 1-15 peptide, balanced conditions; read-out: EHMT2 PEP (IC50 μM)
property.name: IC50

molecule	result
COc1cc2c(C3CCN(C)CC3)cc(C)nc2cc1OCCCN1CCCC1	< 0.1 µM

Proceed to the following item.
Missing value: IC50, human EHMT2 913-1193 (Homo sapiens, UniProt Q96KQ7), entry `CNc1cc(C)nc(Nc2ccc(OC)c(OCCCN3CCC3)c2)n1` . Fill in?
< 0.1 µM

---

Target: EHMT1 (Homo sapiens)
Sequence (Q9H9B1 whole entry, species assumed): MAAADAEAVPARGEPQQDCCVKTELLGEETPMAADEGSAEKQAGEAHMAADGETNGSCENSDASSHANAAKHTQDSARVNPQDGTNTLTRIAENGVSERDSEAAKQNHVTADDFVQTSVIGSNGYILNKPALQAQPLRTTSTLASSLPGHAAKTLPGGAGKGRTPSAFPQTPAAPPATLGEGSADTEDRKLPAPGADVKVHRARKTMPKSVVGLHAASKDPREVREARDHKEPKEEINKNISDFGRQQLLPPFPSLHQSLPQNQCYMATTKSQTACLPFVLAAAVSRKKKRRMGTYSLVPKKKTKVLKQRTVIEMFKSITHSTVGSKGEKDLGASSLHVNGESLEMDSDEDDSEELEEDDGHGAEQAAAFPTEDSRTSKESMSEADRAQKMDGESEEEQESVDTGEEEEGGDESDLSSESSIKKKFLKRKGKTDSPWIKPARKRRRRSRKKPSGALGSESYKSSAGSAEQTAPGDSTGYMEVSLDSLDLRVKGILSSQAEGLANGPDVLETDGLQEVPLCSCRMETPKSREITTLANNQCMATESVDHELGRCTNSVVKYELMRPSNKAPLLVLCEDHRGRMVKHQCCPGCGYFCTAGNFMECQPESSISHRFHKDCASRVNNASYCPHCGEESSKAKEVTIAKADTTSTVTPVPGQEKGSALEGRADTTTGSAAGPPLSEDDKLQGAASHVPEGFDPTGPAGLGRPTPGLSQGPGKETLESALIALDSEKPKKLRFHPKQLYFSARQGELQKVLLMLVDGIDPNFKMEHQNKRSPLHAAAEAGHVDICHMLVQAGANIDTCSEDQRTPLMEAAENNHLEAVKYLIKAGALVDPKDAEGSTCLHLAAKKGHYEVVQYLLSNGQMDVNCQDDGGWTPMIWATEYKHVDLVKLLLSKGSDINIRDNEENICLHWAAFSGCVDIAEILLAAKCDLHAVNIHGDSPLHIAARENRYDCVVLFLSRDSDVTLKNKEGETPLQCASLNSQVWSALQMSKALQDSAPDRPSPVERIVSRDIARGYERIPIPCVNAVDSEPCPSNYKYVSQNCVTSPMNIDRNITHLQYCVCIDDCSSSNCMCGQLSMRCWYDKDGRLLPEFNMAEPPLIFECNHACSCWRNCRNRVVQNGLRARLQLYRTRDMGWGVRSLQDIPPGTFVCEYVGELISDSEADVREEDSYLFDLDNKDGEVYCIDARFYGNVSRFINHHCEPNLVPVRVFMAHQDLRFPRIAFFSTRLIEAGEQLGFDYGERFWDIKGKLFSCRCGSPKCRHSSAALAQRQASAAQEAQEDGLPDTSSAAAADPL
Assay: EHMT1 enzyme assay on peptide substrate (EHMT1 PEP)
Assay type: biochemical
Details: read-out: EHMT1 PEP (IC50 μM)
property.name: IC50

compound	property.name	result
CNc1nc(C2CCN(CCO)CC2)c2cc(OC)c(OCCCN3CCCC3)cc2n1 [Compound 533]	IC50	< 0.1 µM

Name the reported IC50 value associated with the compound COc1cnc(Nc2nc(C)cc3[nH]ncc23)cc1OCCCN1CCCC1 [Compound 460]
< 0.1 µM

Name the reported IC50 value associated with the compound COc1cnc(Nc2cccn3ccnc23)cc1OCCCN1CCCC1 [Compound 586]
1 to 10 µM

Name the reported IC50 value associated with the compound CNc1ccnc(Nc2ccc(OC)c(OCCOC3CC3)c2)n1 [Compound 453]
> 10 µM

---

Molecular target: human EHMT2 913-1193 (Homo sapiens)
Construct: recombinant purified human EHMT2 913-1193, Viva; purchased Viva
Sequence (Q96KQ7 913-1193): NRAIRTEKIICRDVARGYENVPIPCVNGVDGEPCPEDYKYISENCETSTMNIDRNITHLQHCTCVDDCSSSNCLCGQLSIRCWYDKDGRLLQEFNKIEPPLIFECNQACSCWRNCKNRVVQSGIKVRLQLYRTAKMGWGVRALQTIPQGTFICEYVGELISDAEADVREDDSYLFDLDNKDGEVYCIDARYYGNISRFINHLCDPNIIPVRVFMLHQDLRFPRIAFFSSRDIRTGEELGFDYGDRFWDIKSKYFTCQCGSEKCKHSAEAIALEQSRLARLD
Assay: EHMT2 enzyme assay on histone peptide substrate (EHMT2 PEP)
Type: biochemical
Details: Table III; read-out: EHMT2 PEP (IC50 μM)
List of IC50 values.

compound	target.desc	result
CCNC(=O)c1cc(Nc2nccc(NC)n2)ccc1Cl [Compound 396]	human EHMT2 913-1193 (Homo sapiens)	> 10 µM
COc1cnc(Nc2nc(C)cc3[nH]ccc23)cc1OCCCN1CCCC1 [Compound 310]	human EHMT2 913-1193 (Homo sapiens)	0.1 to 1 µM
CNc1ccnc(Nc2cccc3oc(CCN(C)C)nc23)n1 [Compound 295]	human EHMT2 913-1193 (Homo sapiens)	> 10 µM

Name the reported IC50 value associated with the compound CNc1cc(C)nc(Nc2cc(OCCCN3CCCC3)c(OC)cn2)c1 [Compound 307]
< 0.1 µM

Name the reported IC50 value associated with the compound COc1ccc(Nc2ccc3cnn(C)c3c2)cc1OCCCN1CCCC1 [Compound 341]
> 10 µM

Name the reported IC50 value associated with the compound CNc1ccnc(Nc2ccc(OC)c(OCCCN3CC(C)C3)c2)n1 [Compound 423]
0.1 to 1 µM

Name the reported IC50 value associated with the compound CNc1ccnc(Nc2ccc(OC(F)(F)F)c(OCCCN3CCCC3)c2)n1 [Compound 315]
1 to 10 µM

Name the reported IC50 value associated with the compound CNc1ccnc(Nc2ccc(C3CC3)c(OCCCN3CCCC3)c2)n1 [Compound 314]
0.1 to 1 µM

Name the reported IC50 value associated with the compound CNc1cc(Nc2cc(OCCCN3CCCC3)c(OC)cn2)nc(C)c1F [Compound 309]
< 0.1 µM

Name the reported IC50 value associated with the compound CNc1nccc(Nc2ccc(OC)c(OCCCN3CCCC3)c2)n1 [Compound 355]
< 0.1 µM

Name the reported IC50 value associated with the compound CNc1nc(Nc2ccc(OC)c(OCCCN3CCCC3)c2)ncc1C(F)(F)F [Compound 358]
> 10 µM

Name the reported IC50 value associated with the compound CNc1cc(Nc2ccc(OC)c(OCCCN3CCCC3)c2)ncc1F [Compound 272]
0.1 to 1 µM

Name the reported IC50 value associated with the compound CNc1cc(Nc2ccc(OC)c(OCCCN3CCCC3)c2)cc(C(F)(F)F)n1 [Compound 273]
> 10 µM

Name the reported IC50 value associated with the compound CNc1ncc(C(F)(F)F)c(Nc2ccc(OC)c(OCCCN3CCCC3)c2)n1 [Compound 359]
> 10 µM

Name the reported IC50 value associated with the compound CNc1ccnc(Nc2cc(OCCCN3CCCC3)c(OC)cn2)c1 [Compound 305]
< 0.1 µM

Name the reported IC50 value associated with the compound COc1ccc(Nc2cc3c(cn2)ncn3C)cc1OCCCN1CCCC1 [Compound 258]
> 10 µM

Name the reported IC50 value associated with the compound CNc1nc(C2CCN(C)CC2)c2cc(OC)c(OCCCN3CCCC3)cc2n1 [Compound 270]
< 0.1 µM

Name the reported IC50 value associated with the compound CNc1cc(C)nc(Nc2ccc(OC)c(OCC3CCCO3)c2)n1 (centres unmarked) [Compound 452]
> 10 µM

Name the reported IC50 value associated with the compound COc1ccc(Nc2ccc3ncc(C)n3n2)cc1OCCCN1CCCC1 [Compound 347]
1 to 10 µM

Name the reported IC50 value associated with the compound CNc1ccnc(Nc2ccc(OC)c(OCCCN3CCC(OC)C3)c2)n1 (centres unmarked) [Compound 283]
< 0.1 µM

Name the reported IC50 value associated with the compound CNc1cc(C)nc(Nc2cccc(OCCCN3CCCC3)c2)n1 [Compound 391]
0.1 to 1 µM

Name the reported IC50 value associated with the compound CNc1ccnc(Nc2ccc(F)c(OCCCN3CCCC3)c2)n1 [Compound 368]
> 10 µM

Name the reported IC50 value associated with the compound COc1ccc(Nc2ccnc(NCC3CCN(C(C)=O)CC3)n2)cc1OCCCN1CCCC1 [Compound 340]
0.1 to 1 µM

---

List of pIC50 values.
Target: human EHMT2 913-1193 (Homo sapiens)
Construct: recombinant purified human EHMT2 913-1193, Viva; purchased Viva
Assay: EHMT2 enzyme assay on histone peptide substrate (EHMT2 PEP)
Format: biochemical
Conditions: Table VI; read-out: EHMT2 PEP IC50
Protocol: Recombinant purified human EHMT2 913-1193 (55 μM) synthesized by Viva was used for all experiments. Biotinylated histone peptides were synthesized by Biopeptide and HPLC-purified to >95% purity. […] 384-well Flashplates and 96-well filter binding plates were read on a TopCount microplate reader (PerkinElmer). […]
pIC50: −log10 of the molar value.

molecule	pIC50
CNc1cc(C)nc(Nc2cc(OCCCN3CCCC3)c3oncc3c2)n1 [Compound 793]	< 5.00
COc1cnc(Nc2ccc3[nH]nnc3c2)cc1OCCCN1CCCC1 [Compound 686]	< 5.00
COc1cc(NC2CCOCC2)ncc1OCC1CCNC1 (stereo not shown) [Compound 806]	5.00 to 6.00
COc1cc2c(C3CCN(C)C3)nc(C)nc2cc1OCCCN1CCCC1 (stereo not shown) [Compound 745]	6.00 to 7.00
CNc1cc(C)nc(Nc2ccc(OC)c(C(=O)NCc3ccccc3)c2)n1 [Compound 871]	< 5.00

Name the reported pIC50 value associated with the molecule COc1cc2cc(C#N)c(C)nc2cc1OCCCN1CCCC1 [Compound 895]
< 5.00

Name the reported pIC50 value associated with the molecule COc1cc2c(C3CCN(C)CC3)cc(N3CCCCC3)nc2cc1OCCCN1CCCC1 [Compound 812]
> 7.00

Name the reported pIC50 value associated with the molecule CNc1ccnc(Nc2ccc(OC)c(CNCCN3CCCC3)c2)n1 [Compound 1032]
> 7.00

Name the reported pIC50 value associated with the molecule CNc1cc(C)nc(Nc2ccc(OC)c(C#CC3CCNC3)c2)n1 (stereo not shown) [Compound 845]
6.00 to 7.00

Name the reported pIC50 value associated with the molecule CNc1cc(C2CCN(C3CCOC3)CC2)c2cc(OC)c(OCCCN3CCCC3)cc2n1 (stereo not shown) [Compound 758]
> 7.00

Name the reported pIC50 value associated with the molecule CNc1cc2sccc2c(Nc2cc(OCCCN3CCCC3)c(OC)cn2)n1 [Compound 609]
6.00 to 7.00

Name the reported pIC50 value associated with the molecule COc1cc2c(C3CCN(CC(F)(F)F)CC3)cc(C)nc2cc1OCCCN1CCCC1 [Compound 837]
6.00 to 7.00

Name the reported pIC50 value associated with the molecule CCN1CC(COc2cc3nc(C)nc(C4CCN(C)CC4)c3cc2OC)C1 [Compound 664]
5.00 to 6.00

Name the reported pIC50 value associated with the molecule COc1cc(N(C)C2CCOCC2)ncc1OCC1CCNC1 (stereo not shown) [Compound 808]
< 5.00

Name the reported pIC50 value associated with the molecule CNc1ccnc(Nc2ccc(OC)c(OCCC(C)NC)c2)n1 (stereo not shown) [Compound 1016]
5.00 to 6.00

Name the reported pIC50 value associated with the molecule CNc1cc(C)nc(Nc2ccc(OC)c(OC[C@H](O)CN3CC(C)C3)c2)n1 [Compound 985]
6.00 to 7.00

Name the reported pIC50 value associated with the molecule COc1cc2c(C3CCN(C)CC3)cc(-c3cc[nH]n3)nc2cc1OCCCN1CCCC1 [Compound 678]
6.00 to 7.00

Name the reported pIC50 value associated with the molecule COc1ccc(Nc2nn(C)c3cnccc23)cc1OCCCN1CCCC1 [Compound 794]
< 5.00

Name the reported pIC50 value associated with the molecule CNc1cc(C)c2cc(OC)c(C#CCN3CCCC3)cc2n1 [Compound 859]
> 7.00

Name the reported pIC50 value associated with the molecule COc1cc2c(C3CCN([C@H]4CCOC4)CC3)cc(C)nc2cc1OCCCN1CCCC1 [Compound 864]
> 7.00

Name the reported pIC50 value associated with the molecule CNc1cc(C)nc(Nc2ccc(OC)c(OC[C@@H](O)CN3CCCC3)c2)n1 [Compound 905]
6.00 to 7.00

Name the reported pIC50 value associated with the molecule CNCC(C)NCc1cc(Nc2nc(C)cc(NC)n2)ccc1OC (stereo not shown) [Compound 1037]
6.00 to 7.00

Name the reported pIC50 value associated with the molecule CNc1cc(C)nc(Nc2cnc(OC)c(OCCCN3CCC3)c2)n1 [Compound 949]
6.00 to 7.00

Name the reported pIC50 value associated with the molecule CNc1cc(C)nc(Nc2cnc(OC)c(OC[C@H](O)CN3CCC3)c2)n1 [Compound 963]
> 7.00

Name the reported pIC50 value associated with the molecule CN1CCC(Nc2ncc(OCC3CCN(C)C3)cn2)CC1 (stereo not shown) [Compound 632]
< 5.00

Name the reported pIC50 value associated with the molecule CNc1ccnc(Nc2cnc(OC)c(OC[C@@H]3CCN(C)C3)c2)n1 [Compound 912]
6.00 to 7.00

Name the reported pIC50 value associated with the molecule COc1ccc(Nc2cc(C)[nH]n2)cc1OCCCN1CCCC1 [Compound 796]
< 5.00

Name the reported pIC50 value associated with the molecule CCN1CC([C@@H](C)Oc2cc(Nc3nc(C)cc(NC)n3)ccc2OC)C1 [Compound 687]
5.00 to 6.00

Name the reported pIC50 value associated with the molecule COc1cc2c(C3CCN(C)CC3)cc(C)nc2cc1OCCCN1CC[C@H](F)C1 [Compound 741]
6.00 to 7.00

Name the reported pIC50 value associated with the molecule CNc1cc(C)nc(Nc2ccc(OC)c(C(=O)NC3CCN(C)CC3)c2)n1 [Compound 873]
< 5.00
